- SYSTEM TESTED: WT STING (Homo sapiens, UniProt Q86WV6, H232R)
- Sequence (Q86WV6 140-343 H232R): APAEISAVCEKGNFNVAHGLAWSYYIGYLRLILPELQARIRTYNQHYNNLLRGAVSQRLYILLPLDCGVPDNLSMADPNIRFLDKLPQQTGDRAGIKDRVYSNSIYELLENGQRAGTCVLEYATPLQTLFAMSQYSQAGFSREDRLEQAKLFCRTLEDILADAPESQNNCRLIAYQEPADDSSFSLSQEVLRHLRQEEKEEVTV
- PROTOCOL DETAILS: Differential scanning fluorimetry (DSF) with WT STING
- Assay type: binding
- Parameters: 8xHis (N, cleaved yes); SUMO (N, cleaved yes); made in house; host or cells: E. coli Rosetta-gami B (DE3)
- MEASUREMENT CONTEXT: thermal shift vs apoprotein; 150 μM CDN; truncated human WT STING 0.1 mg/ml
- Excerpt: Purified PCR products were cleaved with restriction enzymes BamHI (cat. #R0136S, NEB, Ipswich, USA) and NotI (cat. #R0189S, NEB, Ipswich, USA) and cloned into the pSUMO vector linearized with the identical enzymes. […]
OBSERVATION TYPE: ΔTm at 150 µM (°C)
Just the number please, in °C, no unit attached.

Here is how some compounds turned out for ΔTm at 150 µM.
Notebook entry, WT STING (Homo sapiens, UniProt Q86WV6, H232R) assay: ΔTm at 150 µM of Nc1nc2c(ncn2[C@H]2CC3OP(=O)(S)OC[C@H]4O[C@@H](n5cnc6c(N)ncnc65)C(F)C4OP(=O)(S)OC[C@H]3C2)c(=O)[nH]1 (single isomer, unassigned) [Compound 129a] = ?
6.4

Notebook entry, WT STING (Homo sapiens, UniProt Q86WV6, H232R) assay: ΔTm at 150 µM of Nc1ncnc2c1ncn2[C@@H]1C[C@@H]2COP(=O)(O)OC3C(F)[C@H](n4cnc5c(N)ncnc54)C[C@@H]3COP(=O)(O)OC2C1F (some centres unmarked) = ?
7.6

Notebook entry, WT STING (Homo sapiens, UniProt Q86WV6, H232R) assay: ΔTm at 150 µM of Nc1nc2c(ncn2[C@@H]2C[C@@H]3COP(=O)(O)OC4C(O)[C@H](n5cnc6c(N)ncnc65)O[C@@H]4COP(=O)(O)OC3C2O)c(=O)[nH]1 (some centres unmarked) = ?
2.1

More entries:
Notebook entry, WT STING (Homo sapiens, UniProt Q86WV6, H232R) assay: ΔTm at 150 µM of Nc1nc2c(ncn2[C@@H]2O[C@@H]3COP(=O)(O)OC4C(O)[C@H](n5cnc6c(N)ncnc65)C[C@@H]4COP(=O)(O)OC3C2O)c(=O)[nH]1 (some centres unmarked) = ?
5.2

Notebook entry, WT STING (Homo sapiens, UniProt Q86WV6, H232R) assay: ΔTm at 150 µM of Nc1nc2c(ncn2[C@H]2CC3OP(=O)(O)OC[C@H]4C[C@@H](n5cnc6c(N)ncnc65)C(O)C4OP(=O)(O)OC[C@H]3O2)c(=O)[nH]1 (some centres unmarked) = ?
5.8

Notebook entry, WT STING (Homo sapiens, UniProt Q86WV6, H232R) assay: ΔTm at 150 µM of Nc1ncnc2c1ncn2[C@@H]1O[C@@H]2COP(=O)(O)OC3C(O)[C@H](n4cnc5c(=O)[nH]cnc54)C[C@@H]3COP(=O)(O)OC2C1F (some centres unmarked) = ?
7.6

Notebook entry, WT STING (Homo sapiens, UniProt Q86WV6, H232R) assay: ΔTm at 150 µM of Nc1nc2c(ncn2[C@@H]2O[C@@H]3COP(=O)(S)O[C@@H]4[C@@H](COP(=O)(S)O[C@H]3[C@H]2F)C[C@@H](n2cnc3c(N)ncnc32)[C@@H]4F)c(=O)[nH]1 (single isomer, unassigned) [Compound 132a] = ?
12.9

Notebook entry, WT STING (Homo sapiens, UniProt Q86WV6, H232R) assay: ΔTm at 150 µM of COC1C2OP(=O)(O)OC[C@H]3C[C@@H](n4cnc5c(=O)[nH]c(N)nc54)C(O)C3OP(=O)(O)OC[C@H]2O[C@H]1n1cnc2c(N)ncnc21 (some centres unmarked) = ?
0.5

Notebook entry, WT STING (Homo sapiens, UniProt Q86WV6, H232R) assay: ΔTm at 150 µM of Nc1ncnc2c1ncn2[C@H]1CC2OP(=O)(O)OC[C@H]3O[C@@H](n4cnc5c(N)ncnc54)CC3OP(=O)(O)OC[C@H]2C1 (some centres unmarked) = ?
1.1

Notebook entry, WT STING (Homo sapiens, UniProt Q86WV6, H232R) assay: ΔTm at 150 µM of Nc1ncnc2c1ncn2[C@@H]1C[C@@H]2COP(=O)(O)OC3C[C@H](n4cnc5c(N)ncnc54)O[C@@H]3COP(=O)(O)OC2C1F (some centres unmarked) = ?
6.2

Notebook entry, WT STING (Homo sapiens, UniProt Q86WV6, H232R) assay: ΔTm at 150 µM of Nc1ncnc2c1ncn2[C@@H]1C[C@@H]2COP(=O)(O)O[C@H]3[C@@H](F)[C@H](n4cnc5c(N)ncnc54)O[C@@H]3COP(=O)(O)O[C@H]2[C@H]1O = ?
6.4
